- Test system: tetA promoter (PtetA)-lacZ reporter in E. coli KM3
- Assay type: cell-based
- Experimental parameters: Table 4; thifensulfuron 20 μg/ml (20 ppm); 48 hrs at 30° C.
Measurement label: relative β-galactosidase activity, inducer Ts

Field relative β-galactosidase activity, inducer Ts (entry L1-29: library L1 hit, sulfonylurea-responsive TetR(B) variant, SEQ ID NO: 10 (protein, Sulfonylurea responsive repressor L1-29) MGSRLDKSKVINSALELLNEVGIEGLTTRKLAQKLGVEQPTLYWHVKNKRALLDALAIEMMDRHQTHFCPLEGESWQDFLRNTAKSMRCALLSHRDGAKVWLGTRWTEKQYETPENMLAFLCQQGFSLENALYAWSAVCNFTLGCVLSDQERQVAKEERETPTTDSMPPLLRQAWELSDHQGAEPAFLFGLELIICGLEKQLKCESGS ) reads 0.0

Next:
Field relative β-galactosidase activity, inducer Ts (entry L1-7: library L1 hit, sulfonylurea-responsive TetR(B) variant, SEQ ID NO: 4 (protein, Sulfonylurea responsive repressor L1-07) MGSRLDKSKVINSALELLNEVGIEGLTTRKLAQKLGVEQPTLYWHVKNKRALLDALAIEMLDRHNTHFCPLEGESWQDFLRNNAKSWRCALLSHRDGAKVVLGTAITEKQYETHENPLAFLCQQGFSLENALYAIAAVRRFTLGCVLVDQERQVAKEERETPTTDSMPPLLRQASELQDHQGAEPAFLFGLELIICGLEKQLKCERGS ) reads 0.1

Field relative β-galactosidase activity, inducer Ts (entry L1-24: library L1 hit, sulfonylurea-responsive TetR(B) variant (protein, Sulfonylurea responsive repressor L1-24) MGSRLDKSKVINSALELLNEVGIEGLTTRKLAQKLGVEQPTLYWHVKNKRALLDALAIEMLDRHNTHFCPLEGESWQDFLRNSAKSMRCALLSHRDGAKVLLGTAVTEKQYETTENSLAFLCQQGFSLENALYAIRAVRTFTLGCVLVDQERQVAKEERETPTTDSMPPLLRQAKELLDHQGAEPAFLFGLELIICGLEKQLKCESGS ) reads 0.3

Field relative β-galactosidase activity, inducer Ts (entry L1-44: library L1 hit, sulfonylurea-responsive TetR(B) variant, SEQ ID NO: 13 (protein, Sulfonylurea responsive repressor L1-44) MGSRLDKSKVINSALELLNEVGIEGLTTRKLAQKLGVEQPTLYWHVKNKRALLDALAIEMLDRHATHFCPLEGESWQDFLRNNAKSYRCALLSHRDGAKVYLGTAVTEKQYETAENQLAFLCQQGFSLENALYAVKAVAGFTLGCVLWDQESQVAKEERETPTTASMPPLLRQAVELADHQGAEPAFLFGLELIICGLEKQLKCESGS ) reads 1.9

Origin of measurements: patent US8580556B2
